Cited source for all entries: PubChem BioAssay (NCATS)

experimental target: Cytochrome P450 2C19 (Homo sapiens)
method summary: qHTS Assay for Inhibitors and Substrates of Cytochrome P450 2C19 (AID 899); note: nearly all actives have a fitted effect of over 60% in size; note: potency is the fitted concentration of half-maximal effect
experimental conditions: recombinant CYP2C19, luciferin-H EGE luminescence; series mostly up to 11.4 µM
Results filed as inconclusive are left out. The source made the active and inactive calls. Calls come from the whole dose curve; as a rule, active = well fitted inhibition curve with a large enough effect; inconclusive = small, poorly fitted or top-dose-only effect; inactive = no such curve, though single readings can be large or run the other way.
assay readout: Potency

CCOC(=O)OCC1OC(c2ccccc2)C=CC1OC(=O)OCC (stereo not given) : 3980 nM (active)
CC(=O)OCC1OC(C#Cc2ccccc2)C=CC1O (stereo not given) : inactive
C=CCc1cccc(C2NC(C(=O)O)CCC2C)c1 (stereo not given) : inactive
CC1CCC2C(=O)N3C(CCC(C)C3c3ccccc3Br)C(=O)N2C1c1ccc(C#CCN(C)C)cc1 (stereo not given) : inactive
CC1CCC2C(=O)N3C(CCC(C)[C@@H]3c3cccc(N4CCOCC4)c3)C(=O)N2C1c1cccc(N2CCOCC2)c1 (stereo not given in full) : inactive
O=C1[C@H]2[C@H]3[C@H](O)[C@H](O)C/C(=N/OC[C@@H](O)COCc4ccco4)[C@@H]3CC[C@@H]2C(=O)N1C[C@@H]1CCCO1 : inactive
CC(=O)Nc1ccc(C2NC(C(=O)O)CCC2C)cc1 (stereo not given) : inactive
COCC#Cc1ccc(C2NC(C(=O)O)CCC2C)cc1 (stereo not given) : inactive

Parameters: items (list). Returns: Potency for each item.
1. COC(=O)NC(CC(C)=O)c1ccc(F)cc1 (stereo not given)
2. CC(=O)OCC1OC(C#CC(C)(C)C)C=CC1OC(C)=O (stereo not given)

Reply:
1: inactive; 2: inactive

Parameters: items (list). Returns: Potency for each item.
1. C[C@@H]1O[C@H]2C3=C(C(=O)[C@H]4O[C@@H]4[C@H]3O)[C@@H]1[C@@H]1[C@@H](C)OC=C3[C@H](O)[C@H]4O[C@@H]4/C(=N\OCc4ccccc4)[C@]312
2. CCOC(=O)OCC1OC(c2ccccc2)C=CC1Oc1ccc2oc(=O)cc(C)c2c1 (stereo not given)

Reply:
631 nM (active)
inactive

Parameters: items (list). Returns: Potency for each item.
1. O=C1C=CC2(OCCCO2)C(Br)=C1
2. CC(C)CN1CCc2nc(-c3ccccc3)c3c(c2C1)COC(C)C3 (stereo not given)
3. COC(=O)C1=C(C)N(Cc2ccccc2)C2=C3C(=O)N(c4ccccc4)C(=O)C3[C@@](O)(C(=O)OC)C(=O)N2C1c1ccccc1 (stereo not given in full)
4. O=C1[C@H]2[C@H]3[C@H](O)[C@H](O)C/C(=N/OCc4ccccc4)[C@H]3CC[C@@H]2C(=O)N1C[C@@H]1CCCO1

Reply:
1. inactive
2. inactive
3. inactive
4. inactive

###

Test system: CP335
method summary: qHTS profiling for inhibitors of Plasmodium falciparum proliferation (AID 504749);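 note: 0% = DMSO vehicle and full inhibition = artemisinin control; nearly all actives have a fitted effect of over 60% in size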
experimental conditions: P. falciparum in erythrocytes, SYBR Green DNA, 72 h; series mostly up to 28.7 µM
Inconclusive results are not listed. The source made the active and inactive calls. The call rests on the fitted dose curve; in most records, active means well fitted inhibition curve with a large enough effect; inconclusive means small, poorly fitted or top-dose-only effect; inactive means flat fitted curve, though single readings scatter.
assay readout: outcome

Cn1cc(O)nc1NC(=O)Nc1cccc(Cl)c1 : inactive
CCOC(=O)C(CS)NCCN[C@@H](CS)C(=O)OCC (stereo partly drawn) : inactive
O=C(O)c1ccccc1-c1c2cc(Br)c(=O)c(Br)c-2oc2c(Br)c(O)c(Br)cc12 : inactive

###

method summary: qHTS screen for small molecules that inhibit ELG1-dependent DNA repair: Hit Confirmation with MMS Viability (AID 624251);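 note: ELG1-luc HEK293T cells co-treated with 10 µM MMS; viability read 16 h after compound addition; nearly all actives have a fitted effect of over 60% in size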
experimental conditions: Cell viability with MMS; series mostly up to 46.1 µM
The list shows a part of the results. Inconclusive results are not listed. Activity calls are given as the source filed them. The call rests on the fitted dose curve; in most records, active means well fitted cell-killing curve with a large enough effect; inconclusive means small, poorly fitted or top-dose-only effect, or effect the other way; inactive means flat fitted curve, though single readings scatter.
Bench note: report the call from 1 = active, 0 = inactive

# example entries with known answers
Clc1ccc2nc(-c3ccccc3)nc(C(Cl)Cl)c2c1 : 1
COc1ccc(CNc2ncnc3ccccc23)cc1 : 1
Cc1ccc(C)c(S(=O)(=O)N2CCN(c3ncnc4sccc34)CC2)c1 : 1
NC(=O)c1sc2nc3c(c(-c4ccccc4)c2c1N)CCC3 : 0
O=C(C1CCCN(S(=O)(=O)c2ccccc2)C1)N1CCN(c2ccc(F)cc2)CC1 (stereo not given) : 1
Cc1ccccc1NC(=O)CSc1nc2ccc(Nc3nc(N4CCOCC4)nc(N4CCOCC4)n3)cc2s1 : 0
CC12CCC(C(=O)N3CCN(c4ncccn4)CC3)(c3nc4ccccc4nc31)C2(C)C (stereo not given) : 0
CC(C)(CNC(=O)c1ccc(Cl)c(S(=O)(=O)N2CCc3ccccc3C2)c1)N1CCOCC1 : 1
Cc1cc2oc(=O)cc(CN3CCN(S(=O)(=O)c4cccs4)CC3)c2cc1C(C)C : 1

Continue with the next compound.
Query: Assay outcome for "COc1ccc(CSc2nc(N3CCOCC3)c3c(c2C#N)CC(C)(C)OC3)cc1" : what was it?
Reply: 0
